# System under test: furin, P09958;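 further: purified furin at 1:10 enzyme:substrate in 50 mM HEPES pH 7.5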
# Sequence (P09958 whole entry): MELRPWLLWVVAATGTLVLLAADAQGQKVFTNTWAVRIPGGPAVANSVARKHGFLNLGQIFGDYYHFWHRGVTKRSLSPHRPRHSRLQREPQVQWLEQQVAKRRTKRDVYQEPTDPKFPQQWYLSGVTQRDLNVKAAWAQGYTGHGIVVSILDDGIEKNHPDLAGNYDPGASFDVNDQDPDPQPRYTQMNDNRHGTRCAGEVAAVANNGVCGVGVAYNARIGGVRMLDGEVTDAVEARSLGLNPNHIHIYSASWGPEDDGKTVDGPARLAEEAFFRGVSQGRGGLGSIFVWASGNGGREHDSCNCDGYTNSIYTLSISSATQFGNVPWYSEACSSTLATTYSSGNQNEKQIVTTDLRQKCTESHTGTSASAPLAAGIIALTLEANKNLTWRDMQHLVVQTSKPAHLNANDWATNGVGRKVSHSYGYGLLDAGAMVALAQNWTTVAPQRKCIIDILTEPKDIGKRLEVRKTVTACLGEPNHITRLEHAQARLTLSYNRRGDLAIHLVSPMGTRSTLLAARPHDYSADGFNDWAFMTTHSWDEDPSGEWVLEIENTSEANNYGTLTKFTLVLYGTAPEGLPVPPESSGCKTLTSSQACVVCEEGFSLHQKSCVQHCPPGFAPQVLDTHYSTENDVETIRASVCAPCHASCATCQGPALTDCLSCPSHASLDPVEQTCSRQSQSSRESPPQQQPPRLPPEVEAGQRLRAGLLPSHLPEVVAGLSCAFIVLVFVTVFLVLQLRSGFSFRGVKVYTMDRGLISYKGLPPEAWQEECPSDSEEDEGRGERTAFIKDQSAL
# Protocol: furin cleavage Z-score vs untreated control; higher = more cleavage, active = 3.5 or more, inactive = 1 or less, 8 variable residues between constant flanks
# Study conditions: 7.5 min
The other results are listed elsewhere or left out. No count for the full screen is at hand.
Outcome (select one): Yes for active, No for inactive

Prompt: Per the assay record, what outcome was assigned to CAPAAYAAQGAGNASASA [HC781] ?
Completion: No

Prompt: Given CAECTTPCSGAGNASASA [HC1144] , state the outcome it received in this test.
Completion: No

Prompt: I would be grateful if you could indicate the recorded call for CAMKKRDLSAAGNASASA [FS-2872] .
Completion: Yes

Prompt: For this sequence, state the assay outcome: CARTDRSSDRAGNASASA [FS-1796]
Completion: No

Prompt: Kindly provide the recorded test outcome for the following sequence: CARKKRTTSAAGNASASA [FS-2345]
Completion: Yes

Prompt: Check the results log: what was the call for CARQKRDWIWAGNASASA [FS-2751] ?
Completion: Yes

Prompt: Just curious, what result did CARQKKGVVPAGNASASA [FS-2749] get here?
Completion: No

Prompt: # outcome recorded in this test, key = CARQKRGWMWAGNASASA [FS-2169]
Completion: No

Prompt: What was the test verdict on CARALRSLDLAGNASASA [FS-2325] ?
Completion: Yes

Prompt: What is the recorded call for this sequence in the test? CARHKRQSGVAGNASASA [FS-2211]
Completion: Yes

Prompt: Could you check what this test reported for CARTYRWLSAAGNASASA [FS-2192] ?
Completion: No

Prompt: Which outcome was entered for the sequence CARSCRAAQAAGNASASA [FS-3076] in this test?
Completion: No

Prompt: GET /call?item= CARVRRAAQGAGNASASA [FS-2105] returns the recorded outcome of this test.
Completion: Yes

# credit: the supplement of paper PMC3545927
